test-target: human UT-B (Homo sapiens)
Construct: endogenous in cells; host or cells: human erythrocytes
Sequence (Q13336 whole entry): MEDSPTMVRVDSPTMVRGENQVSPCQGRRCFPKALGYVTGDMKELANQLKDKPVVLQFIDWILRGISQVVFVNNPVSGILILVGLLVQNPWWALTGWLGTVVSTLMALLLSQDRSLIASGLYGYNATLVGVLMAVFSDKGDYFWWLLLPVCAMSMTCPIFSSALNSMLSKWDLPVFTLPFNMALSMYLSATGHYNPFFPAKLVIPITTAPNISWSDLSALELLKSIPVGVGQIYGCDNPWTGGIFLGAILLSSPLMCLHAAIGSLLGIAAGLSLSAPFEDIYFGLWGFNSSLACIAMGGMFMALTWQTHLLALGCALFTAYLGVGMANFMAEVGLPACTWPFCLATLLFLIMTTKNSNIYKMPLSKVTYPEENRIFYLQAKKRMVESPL
protocol-description: erythrocyte lysis model, human erythrocytes
Type: cell-based
measurement-context: concentration when the erythrocyte lysis rate of human was 50%; read-out: IC50 human
assay-endpoint: IC50 (nM)

O=C(Nc1ccc2ncccc2c1)c1ccc([N+](=O)[O-])o1 [Example 16] : 1640
CCOC(=O)c1cccc(NC(=O)c2ccc([N+](=O)[O-])o2)c1 [Example 42] : 470
CNC(=O)c1cc(NC(=O)c2ccc([N+](=O)[O-])o2)cc(C(=O)NC)c1 [Example 68] : 22800
CN(C)CC(=O)Nc1ccc(NC(=O)c2ccc([N+](=O)[O-])o2)cc1 [Example 71] : 1250
CNC(=O)c1cc(C)cc(NC(=O)c2ccc([N+](=O)[O-])o2)c1 [Example 64] : 1080

a = O=C(NCCCN1CCOCC1)c1cccc(NC(=O)c2ccc([N+](=O)[O-])o2)c1 [Example 62]
b = CNC(=O)c1cc(NC(=O)c2ccc([N+](=O)[O-])o2)ccc1C [Example 63]
c = CN1C(=O)c2ccc(NC(=O)c3ccc([N+](=O)[O-])o3)cc2C1=O [Example 69]
Exercise: Hey, quick one: sort these by IC50, low to high? Answer format: list of labels, ordered as asked.
Solution: b, a, c
(b: 1700 nM, a: 3310 nM, c: 12300 nM)

P = Cc1cccc(NC(=O)c2ccc([N+](=O)[O-])o2)c1 [Example 28]
Q = NC(=O)c1cccc(NC(=O)c2ccc([N+](=O)[O-])o2)c1 [Example 44]
Exercise: Pick one: P or Q . Which one has the lower reported IC50? Answer by stating the label of the chosen item.
Solution: Q
(Q: 420 nM, P: 3660 nM)

P = CNC(=O)c1cc(F)cc(NC(=O)c2ccc([N+](=O)[O-])o2)c1 [Example 66]
Q = COc1cccc(NC(=O)c2ccc([N+](=O)[O-])o2)c1 [Example 30]
Exercise: I need your help: which of the pair P , Q has higher IC50? Answer by stating the label of the chosen item.
Solution: P

I = NCc1ccc(NC(=O)c2ccc([N+](=O)[O-])o2)cc1 [Example 51]
II = O=C(CN1CCOCC1)Nc1ccc(NC(=O)c2ccc([N+](=O)[O-])o2)cc1 [Example 72]
Exercise: Pick one: I or II . Which one has the lower reported IC50? Answer by stating the label of the chosen item.
Solution: I
(I: 940 nM, II: 3050 nM)
